All values here come from patent US20210230570.

system under test: Factor X, P00742
Sequence (P00742 whole entry, looked up): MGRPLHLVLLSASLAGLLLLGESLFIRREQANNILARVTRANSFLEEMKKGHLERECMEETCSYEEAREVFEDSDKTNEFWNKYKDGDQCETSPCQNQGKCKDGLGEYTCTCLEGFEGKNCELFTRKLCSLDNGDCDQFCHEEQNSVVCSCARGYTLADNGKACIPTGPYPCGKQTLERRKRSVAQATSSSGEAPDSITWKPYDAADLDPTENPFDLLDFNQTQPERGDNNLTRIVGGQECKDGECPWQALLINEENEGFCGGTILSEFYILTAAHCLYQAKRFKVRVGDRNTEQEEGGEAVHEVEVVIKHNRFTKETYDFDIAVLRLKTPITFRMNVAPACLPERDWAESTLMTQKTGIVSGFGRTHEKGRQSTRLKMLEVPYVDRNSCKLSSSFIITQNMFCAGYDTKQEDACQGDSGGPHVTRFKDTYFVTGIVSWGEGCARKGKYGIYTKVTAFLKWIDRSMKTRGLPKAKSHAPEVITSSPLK
value type: kcat/KM (M⁻¹ s⁻¹)
The answer is to be given in M⁻¹ s⁻¹; state only the numeric part.

[
  {
    "protein": "FIXa-D203N/F205T/R338E (protein) chain 1: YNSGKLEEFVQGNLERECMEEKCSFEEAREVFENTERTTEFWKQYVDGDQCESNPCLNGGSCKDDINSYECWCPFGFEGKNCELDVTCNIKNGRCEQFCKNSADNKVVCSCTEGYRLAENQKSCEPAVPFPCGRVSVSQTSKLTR chain 2: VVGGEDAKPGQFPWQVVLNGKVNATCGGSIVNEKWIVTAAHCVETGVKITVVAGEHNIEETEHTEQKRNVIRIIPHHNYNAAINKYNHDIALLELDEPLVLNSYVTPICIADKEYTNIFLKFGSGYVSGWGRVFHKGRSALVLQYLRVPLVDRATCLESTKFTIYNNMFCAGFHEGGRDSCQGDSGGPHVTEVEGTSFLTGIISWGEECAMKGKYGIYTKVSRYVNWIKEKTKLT",
    "uom": "M⁻¹ s⁻¹",
    "kcat/KM": "1e+08"
  }
]

Now let's try a different one.
Inquiry: Recall and state the measured kcat/KM for FIXa-Y155F/K247N/N249S/R318Y/R338E/R403E (protein) chain 1: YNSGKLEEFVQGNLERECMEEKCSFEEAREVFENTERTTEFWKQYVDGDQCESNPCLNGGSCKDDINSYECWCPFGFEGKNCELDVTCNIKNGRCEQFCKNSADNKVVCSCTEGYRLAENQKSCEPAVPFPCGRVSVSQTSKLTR chain 2: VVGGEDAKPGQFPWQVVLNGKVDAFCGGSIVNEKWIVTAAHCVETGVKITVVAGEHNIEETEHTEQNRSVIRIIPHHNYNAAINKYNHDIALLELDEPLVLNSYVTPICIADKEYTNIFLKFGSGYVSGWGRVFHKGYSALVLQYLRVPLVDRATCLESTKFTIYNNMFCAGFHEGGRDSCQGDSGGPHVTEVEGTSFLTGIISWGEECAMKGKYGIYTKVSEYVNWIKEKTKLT .
Reply text: 9.5e+07
